Value source: paper PMC9027131

- System: MCF-7 cells
- experimental-details: MTT cytotoxicity assay in MCF-7 cells
- Type: cell-based, human
- experimental-setup: 48 h, means ± sd, n = 3
The following compounds are listed with their measured log10 of IC50 values.
# values: log10(IC50), units µM

Known log10 of IC50 results, listed for orientation:
compound | property-measured | result-value
CCOc1ccc2c(C)cc(=O)oc2c1C(C)=NN=C1SCC(=O)N1Cc1ccccc1 (mixture of isomers) | log10 of IC50 | 1.90
CCOc1ccc2c(C)cc(=O)oc2c1C(C)=NN=C1SCC(=O)N1C (mixture of isomers) | log10 of IC50 | 1.31
CCOc1ccc2c(C)cc(=O)oc2c1C(C)=NN=C1SCC(=O)N1CC (mixture of isomers) | log10 of IC50 | 1.76

Request the reported log10 of IC50 associated with CCOc1ccc2c(C)cc(=O)oc2c1C(C)=NN=C1SCC(=O)N1C(=O)c1ccccc1 (mixture of isomers) 1.42

Can you check C=CCN1C(=O)CSC1=NN=C(C)c1c(OCC)ccc2c(C)cc(=O)oc12 (mixture of isomers) next? 0.69

* * *

- tested-target: PI3K-γ (Homo sapiens)
- Construct: purchased BPS Bioscience, Inc 79803
- Sequence (P48736 whole entry): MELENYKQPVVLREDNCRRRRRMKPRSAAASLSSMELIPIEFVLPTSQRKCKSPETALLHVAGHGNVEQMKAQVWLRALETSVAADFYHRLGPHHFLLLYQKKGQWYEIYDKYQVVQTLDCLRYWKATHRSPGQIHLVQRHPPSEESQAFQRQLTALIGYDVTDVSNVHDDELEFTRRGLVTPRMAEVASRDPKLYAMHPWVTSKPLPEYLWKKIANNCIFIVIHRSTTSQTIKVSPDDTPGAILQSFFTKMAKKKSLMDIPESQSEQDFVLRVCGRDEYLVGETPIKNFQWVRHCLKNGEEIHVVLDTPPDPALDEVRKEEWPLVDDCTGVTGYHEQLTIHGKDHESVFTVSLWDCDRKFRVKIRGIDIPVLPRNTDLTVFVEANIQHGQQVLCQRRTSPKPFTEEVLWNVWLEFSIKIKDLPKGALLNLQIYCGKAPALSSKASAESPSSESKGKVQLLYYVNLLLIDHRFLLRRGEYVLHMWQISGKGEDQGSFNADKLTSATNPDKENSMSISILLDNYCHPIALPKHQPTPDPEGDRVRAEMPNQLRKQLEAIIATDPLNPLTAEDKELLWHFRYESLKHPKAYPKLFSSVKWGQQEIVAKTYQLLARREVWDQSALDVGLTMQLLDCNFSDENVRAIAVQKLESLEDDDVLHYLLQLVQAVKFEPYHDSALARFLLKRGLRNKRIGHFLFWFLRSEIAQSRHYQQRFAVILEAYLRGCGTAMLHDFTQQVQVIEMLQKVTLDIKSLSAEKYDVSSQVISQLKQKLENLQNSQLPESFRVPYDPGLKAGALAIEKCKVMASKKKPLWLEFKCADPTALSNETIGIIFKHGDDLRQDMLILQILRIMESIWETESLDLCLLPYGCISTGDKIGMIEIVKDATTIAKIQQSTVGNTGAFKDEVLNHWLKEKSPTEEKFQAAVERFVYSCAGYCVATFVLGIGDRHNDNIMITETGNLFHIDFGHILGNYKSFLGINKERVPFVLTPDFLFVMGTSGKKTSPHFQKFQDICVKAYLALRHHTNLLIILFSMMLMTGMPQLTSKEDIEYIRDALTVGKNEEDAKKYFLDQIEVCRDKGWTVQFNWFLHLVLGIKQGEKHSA
- Sequence (Q8WYR1 whole entry partner): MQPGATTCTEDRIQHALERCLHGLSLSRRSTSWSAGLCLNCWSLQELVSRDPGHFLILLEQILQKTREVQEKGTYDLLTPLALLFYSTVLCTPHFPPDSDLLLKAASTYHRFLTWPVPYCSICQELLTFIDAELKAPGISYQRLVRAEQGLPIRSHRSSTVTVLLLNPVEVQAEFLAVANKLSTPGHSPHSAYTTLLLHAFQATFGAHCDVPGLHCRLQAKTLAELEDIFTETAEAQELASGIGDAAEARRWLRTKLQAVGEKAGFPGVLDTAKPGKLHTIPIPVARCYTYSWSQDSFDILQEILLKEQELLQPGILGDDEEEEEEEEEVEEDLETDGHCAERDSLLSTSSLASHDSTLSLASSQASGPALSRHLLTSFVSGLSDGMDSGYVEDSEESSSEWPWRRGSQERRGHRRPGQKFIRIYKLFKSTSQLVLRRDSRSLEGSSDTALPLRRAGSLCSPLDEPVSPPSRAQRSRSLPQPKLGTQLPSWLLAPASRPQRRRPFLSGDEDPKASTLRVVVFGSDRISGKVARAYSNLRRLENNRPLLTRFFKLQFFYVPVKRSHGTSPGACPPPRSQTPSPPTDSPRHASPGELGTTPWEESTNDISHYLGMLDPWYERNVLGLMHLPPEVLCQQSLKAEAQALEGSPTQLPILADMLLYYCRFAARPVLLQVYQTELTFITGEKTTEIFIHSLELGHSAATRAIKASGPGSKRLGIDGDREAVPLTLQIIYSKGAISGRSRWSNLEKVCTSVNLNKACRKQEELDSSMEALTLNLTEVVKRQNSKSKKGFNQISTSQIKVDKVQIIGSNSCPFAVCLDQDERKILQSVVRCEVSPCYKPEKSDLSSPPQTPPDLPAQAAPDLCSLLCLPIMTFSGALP
- experimental-details: PI3Kγ (p110γ/PIK3R5) enzyme inhibition assay kit
- Type: biochemical
- experimental-setup: means ± sd, n = 3; read-out: IC50 (µM) PI3K-γ Isoform
property-measured: IC50 (µM)
The reply should contain only the number, in µM.

Return IC50 measured with PI3K-γ (Homo sapiens) given this molecule: C/C(=N/N=C1/SCC(=O)N1C(=O)c1ccccc1)c1c(O)ccc2c(C)cc(=O)oc12 [VIIb] 34.7

* * *

We begin with a simple list: items and their reported IC50.
- tested-target: Akt-1 (Homo sapiens)
- Construct: purchased Abcam ab139436
- Sequence (P31749 whole entry, species assumed): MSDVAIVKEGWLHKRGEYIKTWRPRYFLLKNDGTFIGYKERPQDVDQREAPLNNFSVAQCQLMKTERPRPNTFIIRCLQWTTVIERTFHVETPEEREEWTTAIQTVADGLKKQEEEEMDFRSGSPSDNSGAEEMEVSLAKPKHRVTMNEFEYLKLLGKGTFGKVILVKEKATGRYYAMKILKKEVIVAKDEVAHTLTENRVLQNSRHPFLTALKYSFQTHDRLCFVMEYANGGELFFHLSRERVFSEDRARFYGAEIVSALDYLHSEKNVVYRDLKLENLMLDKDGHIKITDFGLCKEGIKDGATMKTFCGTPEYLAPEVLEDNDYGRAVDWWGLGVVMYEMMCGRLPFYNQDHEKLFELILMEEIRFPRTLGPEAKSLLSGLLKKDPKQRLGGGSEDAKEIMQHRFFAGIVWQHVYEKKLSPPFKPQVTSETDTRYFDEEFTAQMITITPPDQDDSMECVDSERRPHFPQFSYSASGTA
- experimental-details: Akt Kinase Activity assay kit
- Format: biochemical
- experimental-setup: means ± sd, n = 3; read-out: IC50 (µM) Akt-1 Isoform
Number in µM, nothing else.

compound | display-unit | result-value
C/C(=N/N=C1/SCC(=O)N1C(=O)c1ccccc1)c1c(O)ccc2c(C)cc(=O)oc12 | µM | 2.93

Let's switch to this compound now.
What does the data say about its IC50? Entry: O=c1cc(N2CCOCC2)oc2c(-c3ccccc3)cccc12 [LY294002, reference compound] 3.53

* * *

- tested-target: PI3K-α (Homo sapiens, UniProt P42336)
- Construct: purchased BPS Bioscience, Inc 79781
- Sequence (P42336 whole entry): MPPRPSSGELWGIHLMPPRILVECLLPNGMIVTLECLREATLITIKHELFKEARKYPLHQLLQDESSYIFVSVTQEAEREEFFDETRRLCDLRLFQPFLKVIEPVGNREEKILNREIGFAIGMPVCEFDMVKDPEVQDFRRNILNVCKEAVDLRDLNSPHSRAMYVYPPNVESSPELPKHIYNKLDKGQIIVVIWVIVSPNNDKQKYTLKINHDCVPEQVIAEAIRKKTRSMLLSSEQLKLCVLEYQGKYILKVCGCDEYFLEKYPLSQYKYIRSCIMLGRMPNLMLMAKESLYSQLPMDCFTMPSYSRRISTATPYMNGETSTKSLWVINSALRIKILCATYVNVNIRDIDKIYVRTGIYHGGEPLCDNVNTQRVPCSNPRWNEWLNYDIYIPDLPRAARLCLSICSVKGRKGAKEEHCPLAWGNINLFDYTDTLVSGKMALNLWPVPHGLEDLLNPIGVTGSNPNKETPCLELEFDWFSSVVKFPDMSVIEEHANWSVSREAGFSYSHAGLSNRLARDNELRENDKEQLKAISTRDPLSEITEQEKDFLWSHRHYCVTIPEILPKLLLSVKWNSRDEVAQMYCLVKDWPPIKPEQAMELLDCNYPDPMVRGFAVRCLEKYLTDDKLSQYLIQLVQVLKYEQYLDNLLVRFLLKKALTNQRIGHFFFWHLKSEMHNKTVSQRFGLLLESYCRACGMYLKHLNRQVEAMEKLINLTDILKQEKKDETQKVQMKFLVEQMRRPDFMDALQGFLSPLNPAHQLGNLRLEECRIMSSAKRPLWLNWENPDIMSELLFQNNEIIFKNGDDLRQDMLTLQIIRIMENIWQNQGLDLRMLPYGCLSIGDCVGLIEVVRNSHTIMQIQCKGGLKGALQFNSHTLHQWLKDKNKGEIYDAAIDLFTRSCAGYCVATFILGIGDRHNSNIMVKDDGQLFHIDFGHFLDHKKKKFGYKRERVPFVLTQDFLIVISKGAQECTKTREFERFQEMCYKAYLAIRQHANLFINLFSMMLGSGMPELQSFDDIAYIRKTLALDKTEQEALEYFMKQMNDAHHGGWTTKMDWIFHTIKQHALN
- Sequence (P27986 whole entry partner): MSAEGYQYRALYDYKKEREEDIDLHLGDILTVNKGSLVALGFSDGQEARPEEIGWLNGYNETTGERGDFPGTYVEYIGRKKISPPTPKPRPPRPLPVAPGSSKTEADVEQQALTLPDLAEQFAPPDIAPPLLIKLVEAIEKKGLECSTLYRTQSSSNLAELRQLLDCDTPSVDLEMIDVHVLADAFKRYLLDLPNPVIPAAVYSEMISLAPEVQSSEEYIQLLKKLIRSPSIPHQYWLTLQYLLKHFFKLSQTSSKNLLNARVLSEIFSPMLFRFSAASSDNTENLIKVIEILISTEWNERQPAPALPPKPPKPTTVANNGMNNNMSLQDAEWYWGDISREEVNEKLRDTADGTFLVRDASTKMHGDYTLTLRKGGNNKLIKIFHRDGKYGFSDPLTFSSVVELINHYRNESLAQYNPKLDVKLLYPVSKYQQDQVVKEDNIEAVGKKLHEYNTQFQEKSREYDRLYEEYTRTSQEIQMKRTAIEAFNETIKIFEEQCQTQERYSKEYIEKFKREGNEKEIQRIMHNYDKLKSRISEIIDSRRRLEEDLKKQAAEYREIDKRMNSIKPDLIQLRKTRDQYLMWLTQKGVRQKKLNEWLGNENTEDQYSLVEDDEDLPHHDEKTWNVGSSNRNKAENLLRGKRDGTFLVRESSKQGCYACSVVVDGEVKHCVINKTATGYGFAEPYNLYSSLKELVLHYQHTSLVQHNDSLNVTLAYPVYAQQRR
- experimental-details: PI3Kα (p110α/p85) enzyme inhibition assay kit
- Type: biochemical
- experimental-setup: means ± sd, n = 3; read-out: IC50 (µM) PI3K-α Isoform
property-measured: IC50 (µM)
Reply with just the number (in µM).

# lookup: IC50 of `C/C(=N/N=C1/SCC(=O)N1C(=O)c1ccccc1)c1c(O)ccc2c(C)cc(=O)oc12` 3.7

* * *

Listed here: items and their measured melting point.

Take a look at these entries with their results.
compound | melting point
CCOc1ccc2c(C)cc(=O)oc2c1/C(C)=N\NC(=S)NCc1ccccc1 [VId] | 140 to 143 °C
CCOc1ccc2c(C)cc(=O)oc2c1/C(C)=N\NC(=S)NC [VIa] | 202 to 204 °C
C=CCNC(=S)N/N=C(/C)c1c(OCC)ccc2c(C)cc(=O)oc12 [VIc] | 100 to 102 °C

Query (compound): CCOc1ccc2c(C)cc(=O)oc2c1/C(C)=N\NC(=S)NC(=O)c1ccccc1 [VIe] ; field requested: melting point 220 to 223 °C

Query CCNC(=S)N/N=C(/C)c1c(OCC)ccc2c(C)cc(=O)oc12 [VIb] next 183 °C
